Would you mind telling me the reported Ki of each entry?
system.tested: Scytalone dehydratase (Magnaporthe oryzae (strain 70-15 / FGSC 8958) (Rice blast fungus)(Pyricularia oryzae), UniProt P56221)
Sequence (P56221 whole entry): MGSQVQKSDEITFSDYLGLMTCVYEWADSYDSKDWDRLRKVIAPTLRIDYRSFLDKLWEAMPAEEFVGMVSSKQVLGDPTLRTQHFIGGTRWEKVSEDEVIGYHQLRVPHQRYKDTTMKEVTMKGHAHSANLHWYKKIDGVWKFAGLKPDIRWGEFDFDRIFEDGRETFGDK
assay.text: Inhibitory activity against Scytalone dehydratase
One number for each entry, in nM.

Answered examples (3):
{"molecule": "C[C@H](COc1ccccc1F)NC(=O)C1(C(F)(F)F)CC(C)(Cl)C1 (stereo partly specified)", "Ki / nM": 0.78}
{"molecule": "C[C@@H](NC(=O)[C@]1(C(F)(F)F)C[C@](C)(Cl)C1)c1ccc(Br)cc1 (stereo in doubt; 3b)", "Ki / nM": 0.026}
{"molecule": "CC(NC(=O)C1(C(F)(F)F)CC(C)(Cl)C1)c1ccc(Oc2ccccc2)cc1 (stereo unspecified)", "Ki / nM": 5.6}

Batch of 3 molecules: report Ki for each.
1. CC(CCc1ccccc1)NC(=O)C1(C(F)(F)F)CC(C)(Cl)C1 (stereo unspecified)
2. C[C@@H](NC(=O)[C@]1(C(F)(F)F)C[C@](C)(Cl)C1)c1ccc(Br)cc1 (stereo in doubt; 3a)
3. C[C@@H](NC(=O)C1(C(F)(F)F)CC(C)(Cl)C1)c1ccc(Br)cc1 (stereo partly specified)

Reply:
[8.6, 2.3, 0.049]
